- Test system: MS2 coat protein
- ASSAY_DETAILS: apparent KD of MS2 coat protein, switch ON state; designed switch direction (-1 OFF switch, 1 ON switch): -1; higher = weaker reporter binding
- MEASUREMENT_CONTEXT: FMN input: 0 or 200 uM; Eterna round: R93 (includes R88 designs)
Tick y if apparent KD of MS2 coat protein is 80 nM or greater. Tick n if apparent KD of MS2 coat protein is less than 80 nM.

Quick check, apparent KD of MS2 coat protein >= 80 nM? AACUGACAUGAGGAUCACCCAUGUCAGGAUAUGACUUCGAAAAAAAAAAAAAACGAUGUCAGAAGGGACAUGGG [Design 69: Sub-opt OB]
n

What about this sequence? AAGAACACAGGAUAUACAUGAAAGAAAGAAAAGAAAAGAAAACAUGAGGAUCACCCAUGUAGAAGGGUGUAGAA [EteRNA is fun!]
y

What about this sequence? GAAAAGUCAGGAUAUGCGAAGGCGUCUGAUAGACGAGGCUAGCAGAAGGGACAUGAGGAUCACCCAUGUGGAAG [Mat - Exclusion 4 - Eli mod - D90]
n

What about this sequence? GAAAAACAUGAGGAUCACCCAUGUAAGGAUAUGCUGAAAAACACGGAAAAAACGUGCAGCAGAAGGUACAAAAG [Mat - Exclusion 1 - Eli mod - D91]
n

What about this sequence? AAGGGACAUGAGGAUCACCCAUGUCAGGAUAUGCUAUGGAAAAUAAAAAUAAAACAUAGCAGAAGGGACACCAA [64%, Meechl, 3]
n

Now, please, on to the next sequence.
Quick check, apparent KD of MS2 coat protein >= 80 nM? AAGCUGGUAGGAUAUACUAGGGCGACUAAUGCGCCGAUAGGACAUGAGGAUCACCCAUGUAGAAGGGCCAGAAA [JR_Exc002_Sub406]
y

----------
- Tested on: MS2 coat protein
- ASSAY_DETAILS: apparent KD of MS2 coat protein, switch OFF state (with FMN for OFF switches, without FMN for ON switches); designed switch direction (-1 OFF switch, 1 ON switch): 1; higher = weaker reporter binding
- MEASUREMENT_CONTEXT: FMN input: 0 or 200 uM; Eterna round: R93 (includes R88 designs)
Here the recorded apparent KD of MS2 coat protein is given for each entry.
Numeric only. Scale: nM

Here's what some known entries look like.
Param item = AACAAUCUAUCUGAGGAUAUCAUAAAAAAGACAUGAGGAUCACCCAUGUAGCAGGAAACUGCAUAUGAGAAGGCAGAUAGAUUGA [SS2: 1122] ; retrieve measured apparent KD of MS2 coat protein.
18.1

What about this sequence? CGGAGACAUGAGGAUCACCCAUGUGAGAAGAGGCGAGGAUAUCGAAAAAAAAAAAAAAAACGAGAAGGCGCGAGAC [salish99-SS1-011]
51.4

What about this sequence? AAAAUACAUGAGGAUCACCCAUGUCCGACAAAUCAAGGAUAUGAUAGCCUAACCAGGCUGUUAGAAGGUGAAAGAA [Laarera]
51.1

What about this sequence? AUAAAAUAAAGUCAGGAUAUCCAUAAUAAAACAUGAGGAUCACCCAUGUUAAAAAAAAGAUCAUGGGAGAAGGGACAAAAUAAAU [SS2 M 33]
57.6

What about this sequence? AACAAUCUAUCUGAGGAUAUCAUGUAAAAGACAUGAGGAUCACCCAUGUAGCAGGAAACUGCAUAUGAGAAGGCAGAUAGAUUGA [SS2: 1120]
21.3

Next:
Param item = CGGAGACAUGAGGAUCACCCAUGUGAGAAGAGGCGAGGAUAUCGAAAGAAAGAAGAGAAACGAGAAGGCGCGAGGA [salish99-SS1-067] ; retrieve measured apparent KD of MS2 coat protein.
38.8

What about this sequence? AAAAGACAUGAGGAUCACCCAUGUAAAAACAUAGGAGGAUAUGUCAUGAAAAAAGACUUGACAGAAGGCCUUUGUC [SS1 - 49]
69.8

What about this sequence? AAAAAACAUGAGGAUCACCCAUGUCCUCGGACGUGAGGAUAUGUACAGACUUCGGUCUGUACAGAAGGCACAAAAA [SS1 - 1034]
333

What about this sequence? AAAAAACAUGAGGAUCACCCAUGUGAAAAUAUGGGAGGAUAUCAUGGAAAAAAAAAAACAUGAGAAGGCCCAGAAA [SS! 1 MT 11]
67.1

What about this sequence? UUAAGCCACGGGCAGGAUAUGUAUUAAAAUACAUGAGGAUCACCCAUGUGCAGGUGUAACACCUGACAGAAGGGCCAAUCGCGGC [Soondi]
241

----------
Here the recorded apparent KD of K4 kissing-loop reporter is given for each entry.
- Tested on: K4 kissing-loop RNA reporter
- ASSAY_DETAILS: apparent KD of K4 kissing-loop reporter; higher = weaker reporter binding
- MEASUREMENT_CONTEXT: Eterna round: R107; input ligand: theophylline 20 uM
Numeric only. Scale: nM

Here's what some known entries look like.
Param item = AAAAUUGCGGUCGAAUUAACUUCUUGCAUACGAGGACCGGUACGGCCGCCACUCGAGUCAAGUGAUGUUUGAUAAUCUAUUAUUA [JR_ExcTryptoA_Sub011] ; retrieve measured apparent KD of K4 kissing-loop reporter.
301

What about this sequence? AAUAAUGAUGUUUAGGAUUUCCGAAUGGAAGGAGCGUGCGAAAGCACAGGUAGGUCGCCAGUGAUGUUGGGACCUGAGCAUCAAA [#SwitchBubble 6 #K4Late]
807

What about this sequence? GGAUGGUAGGCGGCCGCCACUAAAACUGAACACAUACAAACCAGUGAUGUUGGUAUGAUGAAGUAUAGGACCGGGCCUAGAUAGA [Exclusion - Tryptophan B (Freestyle 2)]
672

What about this sequence? UGUGCUGUGUACUGUAAUGUUAUGCGGGAUACCAGAGUCUUUUUAUUCCCUUGGCAGCUUGAGUGAUGUUUGAUGCUGUUCUUGU [kiokmullin]
331

What about this sequence? CUUGAUCGAGGAAGGAGCGGGCCGUCAUUGAGCGCAGUGAUGUUGCGGUCGACUAGUCGAGCCCAGGUAGGUCGCCUGGAGUAAG [Xeveis]
160

Next:
Param item = UGACUGGACUGAAGGAGCGCUAAAACUCCUAGUGAUGUUGGGAAAUAAGAGACAAAGUCUCAGCAGGUAGGUCGCAGUCUAGUCU [ArgBS 24 #SwitchBubble #StaticStem] ; retrieve measured apparent KD of K4 kissing-loop reporter.
657

What about this sequence? GCCAGUGAUGUUGGCGAACCAACGCAUGCAGAGGAUAUUCGUUCGGGAAGAAGGCUGCAGCGUUCUCUCCCGCAGUGAUGUUGCG [Same State FMN A GF 25]
153

What about this sequence? GUUUUAUAGGAGGAUACCAGUACAAAUAAAGUGCAUUAAUAGUAGAGUGAUGUUCUAAAGUACCCUUGGCAGCUUAGUUUAAGUU [#26 K4 Theophylline B Exclusion]
357

What about this sequence? AUCAGCCUCAGAAGGAGCGUGAGUUUUAAGAGGCUGGAGUGAUGUUCCAGACAUAACGACUCACAGGUAGGUCGCUGAGACUAGU [Arg B SS t1]
98.5

What about this sequence? UAUUUAAAUAAAAUAAAAUAAAUUGCUGAUACCAGAGUCAAUUGACUCCCUUGGCAGCGGAUCGAGUGAUGUUCGUAAAAUUUAU [AK2.1 SS Theophylline A]
58.5

What about this sequence? AGUGUUAGGUUAGAUACCAGCCGUCCGUGGAUAACCCUCGGACCGCCAGUGAUGUUGGCAGGCCCUUGGCAGCUAACAGAACAGA [Beriisa]
152

What about this sequence? UUUUUAAUCGCAGAUACCAGUCCAGAAUGAAUACUAUAGUGAUGUUAUAAUAAAGGGAAGGACCCUUGGCAGCUGUAAUAUAUUU [AstrosSsTheB#5]
318

----------
- System: K4 kissing-loop RNA reporter;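 note: bound reporter read as fluorescence of individual clusters on recovered sequencing chips by microscopy, with normalized cluster intensities fitted with a binding model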
- ASSAY_DETAILS: apparent KD of K4 kissing-loop reporter; higher = weaker reporter binding
- MEASUREMENT_CONTEXT: Eterna round: R107; input ligand: FMN 200 uM
VALUE_TYPE: apparent KD of K4 kissing-loop reporter (nM)
Numeric only. Scale: nM

Here's what some known entries look like.
Param item = UGGCGGCAAGGGUUAUUGGAAAGUAUUCGACGAGGACCGGUACGGCCGCCACUCGAACACCAGUGAUGUUGGUCUGGCUUAAGCC [Exclusion Tryptophan A GF 21] ; retrieve measured apparent KD of K4 kissing-loop reporter.
276

What about this sequence? CGAGAGCUCUUGUUUGGAUGUGUUUUAUGGCGAGGACCGGUACGGCCGCCACUCGGGUGAUGUUAGUGAUGUUGAUGUAGUGAUG [qzxmullin]
118

What about this sequence? GAAGGUCAAAGACCUUCGUGCACAACUGAUACCAGUCGCGAAAGCGACCCUUGGCAGCAGGGCAGUGAUGUUGCCAGUGCACAAA [Omei KL Theo A SS A v3]
157

Moving on to the next sequence.
Param item = AAGUGAUGUUGUAGUGAUGUUGUGAUGUUGCAGGAUAUAUAGUGAUGUAGAAGGGUAUGUUCAGUUUUUUUUUUUGAGUGUUGAU [szxmullin] ; retrieve measured apparent KD of K4 kissing-loop reporter.
84.3
